Target: T1, human CCR8 (human, UniProt P51685 1-355)
T1 construct: whole, on cells; construct used for the overexpressing cell lines is not described; also called hCCR8
T1 sequence (P51685 whole entry): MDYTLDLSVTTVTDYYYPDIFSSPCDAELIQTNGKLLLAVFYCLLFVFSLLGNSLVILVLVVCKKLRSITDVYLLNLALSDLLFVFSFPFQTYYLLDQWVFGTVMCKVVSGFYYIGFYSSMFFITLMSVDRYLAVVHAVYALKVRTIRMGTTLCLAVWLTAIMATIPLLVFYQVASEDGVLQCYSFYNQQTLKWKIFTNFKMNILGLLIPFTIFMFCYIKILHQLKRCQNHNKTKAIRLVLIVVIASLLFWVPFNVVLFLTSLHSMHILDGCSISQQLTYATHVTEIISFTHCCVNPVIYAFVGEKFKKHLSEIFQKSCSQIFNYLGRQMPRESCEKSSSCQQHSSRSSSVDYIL
Test: FACS, CHO-K1-hCCR8 cells
Description: Cells overexpressing human CCR8 were digested with pancreatin, counted and resuspended to a cell density of 1E6 cells/mL. The cell suspension was added to a 96-well V-bottom plate at 100 μL/well and centrifuged at 300 g for 5 min, and the supernatant was discarded. The anti-CCR8 antibodies provided herein was used as a primary antibody and diluted in a 5-fold gradient with an FACS buffer (DPBS containing 2% FBS) from 200 nM. […]
Quick reference for EC50 among some binders
Number in nM, nothing else.

PR004337 (antibody, human IgG1, kappa, V domains shown, heavy-chain semi-humanized variant of PR004128, IgG1 with DE mutation) VH: EVQLVESGGGLVQPGGSLKLSCAASGFTFNTNAMNWVRQASGKGLEWVGRIRSKSNNYATYYADSVKDRFTISRDDSKSTLYLQMNSLKTEDTAVYYCVRGKENGNYYAMDFWGQGTTVTVSS VL: DIVMTQAAPSVPVTPGESVSISCRSSKSLLHSNGKIYLYWFLQRPGQSPQLLIYRMSNLASGVPDRFSGSGSGTAFTLRISRVEAEDVGVYYCMQHLEYPLTFGAGTKLEIKR
0.76

Continue with the binder presented below.
GET /values?readout=EC50&item= PR004330 (antibody, human IgG1, kappa, V domains shown, heavy-chain semi-humanized variant of PR004128, IgG1 with DE mutation) VH: EVQLVESGGGLVKPGGSLRLSCAASGFTFNTYAMNWVRQAPGKGLEWVGRIRSKSNNYATYYADSVKDRFTISRDDSKSTLYLQMNSLKTEDTAVYYCVRGKENGNYYAMDFWGQGTTVTVSS VL: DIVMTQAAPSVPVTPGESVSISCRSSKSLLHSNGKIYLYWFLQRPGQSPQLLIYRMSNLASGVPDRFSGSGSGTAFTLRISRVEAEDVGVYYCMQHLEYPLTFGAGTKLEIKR
0.85
